procedure_details: Aqueous solubility of the compound at pH 7
Assay type: physicochemical
test_context: aqueous medium
endpoint_name: solubility

Worked examples follow.
O=C(c1ccccc1-n1nccn1)N1CCC(F)(F)[C@@H](Oc2ccc3ccccc3n2)C1 : < 26 µM
O=C(c1nccc2[nH]ccc12)N1CCC(F)(F)[C@@H](Oc2ccc3ccccc3n2)C1 : > 150 µM

Continue with the next compound.
Name the recorded solubility for "O=C(c1ccnc2[nH]ccc12)N1CCC(F)(F)[C@@H](Oc2ccc3ccccc3n2)C1" . > 150 µM

---

Test system: CHO
procedure_details: Selectivity index, ratio of Ki for human OX2 receptor expressed on CHO cell membrane to Ki for Ile408-Val variant human OX1 receptor expressed on CHO cell membrane
Assay type: cell-based
# maps each entry to its Ratio Ki

Name the recorded Ratio Ki for Cc1ccccc1C(=O)N1CCC(F)(F)C(Oc2ccc3ccccc3n2)C1 (racemic) . > 51

Now give it for O=C(c1ccnc2[nH]cnc12)N1CCC(F)(F)C(Oc2ccc3ccccc3n2)C1 (racemic) too. > 65

Now give it for O=C(c1ccc(F)cc1)N1CCC(F)(F)C(Oc2ccc3ccccc3n2)C1 (racemic) too. > 4

Now give it for "O=C(c1cccc(-c2ncc[nH]2)c1)N1CCC(F)(F)[C@@H](Oc2ccc3ccccc3n2)C1" too. 1000 to 1380

Now give it for O=C(c1cccc(F)c1)N1CCC(F)(F)C(Oc2ccc3ccccc3n2)C1 (racemic) too. > 48

Now give it for "O=C(c1nccc2[nH]cnc12)N1CCC(F)(F)[C@@H](Oc2ccc3ccccc3n2)C1" too. 411

Hey, just so you know, these numbers are from ChEMBL document CHEMBL3867477.
